Value source: patent US20240182445A1

# study.target: human TREK-1 (Homo sapiens, UniProt O95069)
# Construct: expressed in transfected cells
# Sequence (O95069 1-426): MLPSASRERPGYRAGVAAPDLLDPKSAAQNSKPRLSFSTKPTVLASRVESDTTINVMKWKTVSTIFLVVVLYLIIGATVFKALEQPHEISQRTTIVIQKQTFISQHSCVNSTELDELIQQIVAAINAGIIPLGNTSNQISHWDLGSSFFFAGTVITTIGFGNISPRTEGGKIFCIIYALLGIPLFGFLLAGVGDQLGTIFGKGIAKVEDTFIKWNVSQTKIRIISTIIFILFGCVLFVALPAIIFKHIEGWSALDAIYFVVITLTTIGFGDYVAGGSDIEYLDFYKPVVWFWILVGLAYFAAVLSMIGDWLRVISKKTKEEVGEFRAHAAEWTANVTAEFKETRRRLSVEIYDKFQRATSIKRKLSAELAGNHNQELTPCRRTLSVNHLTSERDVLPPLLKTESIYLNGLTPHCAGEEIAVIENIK
# assay.text: TREK-1 Thallium (Tl+) flux assay, Method 1
# Format: cell-based
# condition.context: TREK-1 Thallium (Tl+) flux assay; values without footnote *12 are Method 1
Classify: condition met when IC50 is strictly less than 200 nM; condition not met when IC50 is not.

| molecule | assigned.label |
| --- | --- |
| CC(=O)NC1CCCC(n2ncc(Cl)c2C(=O)Nc2ncc(C#Cc3ccccc3)cc2C)C1 (stereo not shown) | condition met |
| CC(=O)N1CCC(n2ncc(Cl)c2C(=O)Nc2ncc(C#Cc3ccccc3)cc2F)CC1 | condition met |
| CC(=O)N1CC(F)(Cn2ncc(Cl)c2C(=O)Nc2ncc(C#Cc3ccccc3)cc2F)C1 | condition not met |
| CC(=O)N1CC[C@H](Cn2ncc(Cl)c2C(=O)Nc2ncc(C#Cc3ccccc3)cc2F)[C@H](F)C1 | condition met |
| Cc1cc(C#Cc2ccccc2)cnc1NC(=O)c1c(Cl)cnn1CC1(C#N)CCN(C(=O)OC(C)(C)C)CC1 | condition not met |
| Cc1cc(C#Cc2ccccc2)cnc1NC(=O)c1c(Cl)cnn1C(C)C1CCN(C(=O)C(C)C)CC1 (stereo not shown) | condition met |
| Cc1cc(C#Cc2ccccc2)cnc1NC(=O)c1c(Cl)cnn1CC1CCN(C(=O)OC(C)(C)C)CC1 | condition not met |
| CC(C)(C)OC(=O)N1CCC(F)(Cn2ncc(Cl)c2C(=O)Nc2ncc(C#Cc3ccccc3)cc2F)CC1 | condition not met |
| Cc1cc(C#Cc2ccccc2)cc(F)c1NC(=O)c1c(Cl)cnn1[C@H]1CCOC1 | condition not met |
| Cc1cc(C#Cc2ccccc2)cnc1NC(=O)c1c(Cl)cnn1C1CCN(C(=O)C(C)C)C1 (stereo not shown) | condition not met |
| O=C(Nc1ncc(C#Cc2ccccc2)cc1F)c1c(Cl)cnn1C[C@H]1COCCO1 | condition not met |
| CCC(=O)N1CCC(n2ncc(Cl)c2C(=O)Nc2ncc(C#Cc3ccc(F)cc3)cc2C)CC1 | condition met |
| Cc1cc(C#Cc2ccccc2)cnc1NC(=O)c1c(Cl)cnn1[C@@H]1CCOC1 | condition not met |
